Entries and their Drug uptake values follow.
test system: Brain; assay: Biodistribution in normal ddY mouse brain at 3.7 MBq, iv after 60 mins; format: ADME, organism-based; details: in vivo, 1 h
# output: bare number, implied unit % ID/g

Example entries and their recorded answers appear below.
{"Substance smiles": "CN([11CH3])c1ccc(/C=C/C(=O)c2ccc(OCCOCCOCCF)cc2)cc1", "Units label": "% ID/g", "Measured result": 0.35}
{"Substance smiles": "CN([11CH3])c1ccc(/C=C/C(=O)c2ccc(OCCF)cc2)cc1", "Units label": "% ID/g", "Measured result": 2.26}
{"Substance smiles": "CN([11CH3])c1ccc(/C=C/C(=O)c2ccc(F)cc2)cc1", "Units label": "% ID/g", "Measured result": 1.04}

Task item: Consider the compound `CN(C)c1ccc(/C=C/C(=O)c2ccc(OCCOCCOCC[18F])cc2)cc1` and give its measured Drug uptake.
Reply: 1.07

Task item: Query: Drug uptake; subject: `CN([11CH3])c1ccc(/C=C/C(=O)c2ccc(OCCOCCF)cc2)cc1`
Reply: 1

====

Drug uptake by entry:
test system: Blood; test: Biodistribution in normal ddY mouse blood at 3.7 MBq, iv after 10 mins; assay type: ADME, organism-based; conditions: in vivo

{"Substance smiles": "CN(C)c1ccc(/C=C/C(=O)c2ccc(OCCOCCOCC[18F])cc2)cc1", "Drug uptake": "1.94 % ID/g"}
{"Substance smiles": "CN([11CH3])c1ccc(/C=C/C(=O)c2ccc(OCCF)cc2)cc1", "Drug uptake": "2.73 % ID/g"}
{"Substance smiles": "CN([11CH3])c1ccc(/C=C/C(=O)c2ccc(OCCOCCF)cc2)cc1", "Drug uptake": "2.28 % ID/g"}

Task item: Would you kindly share the measured Drug uptake for `CN([11CH3])c1ccc(/C=C/C(=O)c2ccc(OCCOCCOCCF)cc2)cc1` ?
Reply: 1.52 % ID/g

Task item: For `CN([11CH3])c1ccc(/C=C/C(=O)c2ccc(F)cc2)cc1` , what is its reported Drug uptake?
Reply: 1.6 % ID/g

====

test system: Blood; test: Biodistribution in normal ddY mouse blood at 3.7 MBq, iv after 2 mins; assay type: ADME, organism-based; details: in vivo
The label is satisfied for Drug uptake below 3 % ID/g and not satisfied for Drug uptake equal to or exceeding 3 % ID/g.

See these solved cases before continuing.
{"Substance smiles": "CN([11CH3])c1ccc(/C=C/C(=O)c2ccc(OCCOCCOCCF)cc2)cc1", "Assigned category": "satisfied"}
{"Substance smiles": "CN([11CH3])c1ccc(/C=C/C(=O)c2ccc(OCCF)cc2)cc1", "Assigned category": "not satisfied"}
{"Substance smiles": "CN([11CH3])c1ccc(/C=C/C(=O)c2ccc(F)cc2)cc1", "Assigned category": "satisfied"}
{"Substance smiles": "CN([11CH3])c1ccc(/C=C/C(=O)c2ccc(OCCOCCF)cc2)cc1", "Assigned category": "not satisfied"}

Pending compound:
Task item: Determine whether this compound shows Drug uptake lower than 3 % ID/g (ties excluded): `CN(C)c1ccc(/C=C/C(=O)c2ccc(OCCOCCOCC[18F])cc2)cc1`
Reply: satisfied

====

Catalogue of Drug uptake values
system: Brain; test: Biodistribution in normal ddY mouse brain at 3.7 MBq, iv after 10 mins; type: ADME, organism-based; conditions: in vivo
Quick reminder: number only, in % ID/g, skip the unit.

Here's what some known entries look like.
{"Substance smiles": "CN([11CH3])c1ccc(/C=C/C(=O)c2ccc(OCCF)cc2)cc1", "Units label": "% ID/g", "Measured result": 3.24}
{"Substance smiles": "CN([11CH3])c1ccc(/C=C/C(=O)c2ccc(OCCOCCF)cc2)cc1", "Units label": "% ID/g", "Measured result": 2.23}
{"Substance smiles": "CN([11CH3])c1ccc(/C=C/C(=O)c2ccc(F)cc2)cc1", "Units label": "% ID/g", "Measured result": 1.53}
{"Substance smiles": "CN([11CH3])c1ccc(/C=C/C(=O)c2ccc(OCCOCCOCCF)cc2)cc1", "Units label": "% ID/g", "Measured result": 1.38}

Task item: Recall the recorded Drug uptake for `CN(C)c1ccc(/C=C/C(=O)c2ccc(OCCOCCOCC[18F])cc2)cc1` with Brain and state it.
Reply: 1.52

====

Measured Drug uptake values are reported for all entries that follow.
system: Brain; assay: Biodistribution in normal ddY mouse brain at 3.7 MBq, iv after 2 mins; format: ADME, organism-based; settings: in vivo
Report the figure in % ID/g without appending any unit label.

Use the examples below as a reference point.
{"Substance smiles": "CN([11CH3])c1ccc(/C=C/C(=O)c2ccc(F)cc2)cc1", "Drug uptake (% ID/g)": 3.68}
{"Substance smiles": "CN([11CH3])c1ccc(/C=C/C(=O)c2ccc(OCCF)cc2)cc1", "Drug uptake (% ID/g)": 6.01}
{"Substance smiles": "CN([11CH3])c1ccc(/C=C/C(=O)c2ccc(OCCOCCOCCF)cc2)cc1", "Drug uptake (% ID/g)": 4.31}
{"Substance smiles": "CN(C)c1ccc(/C=C/C(=O)c2ccc(OCCOCCOCC[18F])cc2)cc1", "Drug uptake (% ID/g)": 3.48}

Task item: Requested read-out: Drug uptake. Entry: `CN([11CH3])c1ccc(/C=C/C(=O)c2ccc(OCCOCCF)cc2)cc1`
Reply: 4.73

====

test system: Blood; test: Biodistribution in normal ddY mouse blood at 3.7 MBq, iv after 60 mins; type: ADME, organism-based; settings: in vivo, 1 h
Give true (1) when the value for Drug uptake is at least 1 % ID/g. Give false (0) when it is less.

Example cases with answers are listed next.
{"Substance smiles": "CN([11CH3])c1ccc(/C=C/C(=O)c2ccc(OCCOCCOCCF)cc2)cc1", "Assigned category": "false (0)"}
{"Substance smiles": "CN([11CH3])c1ccc(/C=C/C(=O)c2ccc(OCCOCCF)cc2)cc1", "Assigned category": "true (1)"}
{"Substance smiles": "CN([11CH3])c1ccc(/C=C/C(=O)c2ccc(F)cc2)cc1", "Assigned category": "true (1)"}

Task item: Evaluate `CN(C)c1ccc(/C=C/C(=O)c2ccc(OCCOCCOCC[18F])cc2)cc1` : Drug uptake at minimum 1 % ID/g?
Reply: true (1)

Task item: Textbook exercise: given the entry `CN([11CH3])c1ccc(/C=C/C(=O)c2ccc(OCCF)cc2)cc1` , state whether its Drug uptake is greater than or equal to 1 % ID/g.
Reply: true (1)

====

test system: Blood; assay: Biodistribution in normal ddY mouse blood at 3.7 MBq, iv after 30 mins; type: ADME, organism-based; details: in vivo, 0.5 h
Assay metric: Drug uptake

Look over these answered cases.
{"Substance smiles": "CN([11CH3])c1ccc(/C=C/C(=O)c2ccc(F)cc2)cc1", "Drug uptake": "0.39 % ID/g"}
{"Substance smiles": "CN(C)c1ccc(/C=C/C(=O)c2ccc(OCCOCCOCC[18F])cc2)cc1", "Drug uptake": "2.35 % ID/g"}
{"Substance smiles": "CN([11CH3])c1ccc(/C=C/C(=O)c2ccc(OCCOCCOCCF)cc2)cc1", "Drug uptake": "1.01 % ID/g"}

Task item: Quick one: Drug uptake for `CN([11CH3])c1ccc(/C=C/C(=O)c2ccc(OCCOCCF)cc2)cc1` ?
Reply: 2.54 % ID/g

Task item: Given the entry `CN([11CH3])c1ccc(/C=C/C(=O)c2ccc(OCCF)cc2)cc1` , report its measured Drug uptake.
Reply: 2.12 % ID/g

====

assay: Displacement of [125I]DMIC from amyloid beta (1 to 42) peptide
Assay metric: Ki (nM)
Value expressed in nM; do not type the unit.

Completed entries (count: 6):
{"Substance smiles": "CNc1ccc(/C=C/C(=O)c2ccc(OCCOCCOCCF)cc2)cc1", "Assay metric": "Ki", "Measured result": 471}
{"Substance smiles": "CN(C)c1ccc(/C=C/C(=O)c2ccc(F)cc2)cc1", "Assay metric": "Ki", "Measured result": 49.8}
{"Substance smiles": "CNc1ccc(/C=C/C(=O)c2ccc(OCCOCCF)cc2)cc1", "Assay metric": "Ki", "Measured result": 216}
{"Substance smiles": "CN(C)c1ccc(/C=C/C(=O)c2ccc(OCCF)cc2)cc1", "Assay metric": "Ki", "Measured result": 45.7}
{"Substance smiles": "Nc1ccc(/C=C/C(=O)c2ccc(OCCOCCOCCF)cc2)cc1", "Assay metric": "Ki", "Measured result": 790}
{"Substance smiles": "CN(C)c1ccc(/C=C/C(=O)c2ccc(OCCOCCF)cc2)cc1", "Assay metric": "Ki", "Measured result": 20}

Task item: Need Ki, item `Nc1ccc(/C=C/C(=O)c2ccc(OCCOCCF)cc2)cc1`
Reply: 1050

Task item: // Ki lookup, key: `CN(C)c1ccc(/C=C/C(=O)c2ccc(OCCOCCOCCF)cc2)cc1`
Reply: 38.9

Task item: Given `Nc1ccc(/C=C/C(=O)c2ccc(F)cc2)cc1` , state its recorded Ki.
Reply: 663

Task item: Find the recorded Ki belonging to `CN(C)c1ccc(-c2cn3cc(I)ccc3n2)cc1` and report it.
Reply: 28

Task item: Entry `Nc1ccc(/C=C/C(=O)c2ccc(OCCF)cc2)cc1` has what Ki?
Reply: 679

Task item: Quick one: Ki for `CNc1ccc(/C=C/C(=O)c2ccc(OCCF)cc2)cc1` ?
Reply: 197

Task item: # Ki lookup, item `CN(C)c1ccc(/C=C/C(=O)c2ccc(I)cc2)cc1`
Reply: 13.1

Task item: Sample `CNc1ccc(/C=C/C(=O)c2ccc(F)cc2)cc1` — what was its Ki?
Reply: 234

This collection of values is drawn from ChEMBL document CHEMBL1155231.
